Item-by-item account of inhibition at 1 µM
# target: recombinant human 17β-HSD2 (Homo sapiens)
# Construct: made in house; host or cells: Sd9 (Sf9) insect cells, baculovirus (Bac to Bac Expression System)
# Sequence (P37059 whole entry): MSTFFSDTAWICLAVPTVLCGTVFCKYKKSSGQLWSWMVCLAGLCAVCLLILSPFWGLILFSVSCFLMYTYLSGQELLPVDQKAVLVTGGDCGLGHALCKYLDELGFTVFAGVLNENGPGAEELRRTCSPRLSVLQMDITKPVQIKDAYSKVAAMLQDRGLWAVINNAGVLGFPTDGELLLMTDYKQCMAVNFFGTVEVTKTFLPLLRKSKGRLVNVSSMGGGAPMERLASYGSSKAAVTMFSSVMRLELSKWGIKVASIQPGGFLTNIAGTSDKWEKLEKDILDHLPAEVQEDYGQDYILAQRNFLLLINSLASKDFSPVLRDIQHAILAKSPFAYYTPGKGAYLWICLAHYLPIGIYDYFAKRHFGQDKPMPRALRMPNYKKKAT
# assay comment: Inhibition of recombinant human 17β-HSD2
# Format: biochemical
# experimental parameters: inhibitor at 1 μM; 50 nM estradiol, 1 mM NADH, 30 min at RT; read-out: 17β-HSD2 Inhibition % at 1 μM
Counter-ions that a name gives are not always drawn.
Report as: number unit

# molecule, result
data = [
    ("Cc1cnc(NC(=O)CC[C@@H]2CC(=O)[C@@]3(C)CCC4c5ccc(OC(=O)CCC(=O)O)cc5CCC4C23)s1 (stereo partly shown) [Compound 10, sodium salt]", "1%"),
    ("Cc1cnc(NC(=O)CC[C@@H]2CC(=O)[C@@]3(C)CCC4c5cc(C(C)(C)C)c(O)cc5CCC4C23)s1 (stereo partly shown)", "12%"),
    ("Cc1cnc(NC(=O)CC[C@@H]2CC(=O)[C@@]3(C)CCC4c5ccc(O)c(Cl)c5CCC4C23)s1 (stereo partly shown)", "21%"),
]

As a next step, examine the molecule that follows.
For Cc1cnc(NC(=O)CC[C@@H]2CC(=O)[C@@]3(C)CCC4c5cc(CN(C)C)c(O)cc5CCC4C23)s1 (stereo partly shown) , write its inhibition at 1 µM.
2%

---

Item-by-item account of In vitro metabolic stability, % remaining after 60 min
# experimental parameters: human, tissue homogenate, 1 h
Report as a plain number; the unit % is understood.

# molecule, result
measured = [
    ("Cc1cnc(NC(=O)CC[C@@H]2CC(=O)[C@@]3(C)CCC4c5ccc(OCc6ccccc6)cc5CCC4C23)s1 (stereo partly shown)", 74),
    ("Cc1cnc(NC(=O)CC[C@@H]2CC(=O)[C@@]3(C)CCC4c5ccc(OS(C)(=O)=O)cc5CCC4C23)s1 (stereo partly shown)", 25),
    ("Cc1cnc(NC(=O)CC[C@@H]2CC(=O)[C@@]3(C)CCC4c5ccccc5CCC4C23)s1 (stereo partly shown)", 74),
    ("Cc1cnc(NC(=O)CC[C@@H]2CC(=O)[C@@]3(C)CCC4c5cc(Br)c(O)c(Br)c5CCC4C23)s1 (stereo partly shown)", 81),
    ("Cc1cnc(NC(=O)CC[C@@H]2CC(=O)[C@@]3(C)CCC4c5cc6ncoc6cc5CCC4C23)s1 (stereo partly shown)", 48),
]

For Cc1cnc(NC(=O)CC[C@@H]2CC(=O)[C@@]3(C)CCC4c5ccc(OC(=O)C(C)(C)C)cc5CCC4C23)s1 (stereo partly shown) , write its In vitro metabolic stability, % remaining after 60 min.
30

For Cc1cnc(NC(=O)CC[C@@H]2CC(=O)[C@@]3(C)CCC4c5ccc(OS(=O)(=O)O)cc5CCC4C23)s1 (stereo partly shown) , write its In vitro metabolic stability, % remaining after 60 min.
50

---

Item-by-item account of inhibition at 1 µM
# target: recombinant human 17β-HSD2 (Homo sapiens)
# Construct: made in house; host or cells: Sd9 (Sf9) insect cells, baculovirus (Bac to Bac Expression System)
# assay comment: Inhibition of recombinant human 17β-HSD2
# Assay type: biochemical
# experimental parameters: inhibitor at 1 μM; 50 nM estradiol, 1 mM NADH, 30 min at RT; read-out: 17β-HSD2 Inhibition % at 1 μM
Report as a plain number; the unit % is understood.

Recorded results for 4 molecules are shown here.
# molecule, inhibition at 1 µM [%]
rows = [
    ("Cc1cnc(NC(=O)CC[C@@H]2CC(=O)[C@@]3(C)CCC4c5cc([N+](=O)[O-])c(O)c(F)c5CCC4C23)s1 (stereo partly shown)", 2),
    ("Cc1cnc(NC(=O)CC[C@@H]2CC(=O)[C@@]3(C)CCC4c5ccc(O)c(I)c5CCC4C23)s1 (stereo partly shown)", 4),
    ("Cc1cnc(NC(=O)CC[C@@H]2CC(=O)[C@@]3(C)CCC4c5cc6ncoc6cc5CCC4C23)s1 (stereo partly shown)", 2),
    ("CC(=O)Oc1cc2c(cc1F)C1CC[C@]3(C)C(=O)C[C@@H](CCC(=O)Nc4ncc(C)s4)C3C1CC2 (stereo partly shown)", 4),
]

For COc1ccc2c(c1)CCC1C2CC[C@]2(C)C(=O)C[C@@H](CCC(=O)Nc3ncc(C)s3)C12 (stereo partly shown) [Compound X, reference compound] , write its inhibition at 1 µM.
3

For Cc1cnc(NC(=O)CC[C@@H]2CC(=O)[C@@]3(C)CCC4c5cccc(O)c5CCC4C23)s1 (stereo partly shown) , write its inhibition at 1 µM.
0

For Cc1cnc(NC(=O)CC[C@@H]2/C(=C/O)C(=O)[C@@]3(C)CCC4c5ccc(O)cc5CCC4C23)s1 (stereo partly shown) , write its inhibition at 1 µM.
3

---

# target: recombinant human 17β-HSD1 (Homo sapiens, UniProt P14061)
# Construct: made in house; host or cells: Sd9 (Sf9) insect cells, baculovirus (Bac to Bac Expression System)
# Sequence (P14061 whole entry): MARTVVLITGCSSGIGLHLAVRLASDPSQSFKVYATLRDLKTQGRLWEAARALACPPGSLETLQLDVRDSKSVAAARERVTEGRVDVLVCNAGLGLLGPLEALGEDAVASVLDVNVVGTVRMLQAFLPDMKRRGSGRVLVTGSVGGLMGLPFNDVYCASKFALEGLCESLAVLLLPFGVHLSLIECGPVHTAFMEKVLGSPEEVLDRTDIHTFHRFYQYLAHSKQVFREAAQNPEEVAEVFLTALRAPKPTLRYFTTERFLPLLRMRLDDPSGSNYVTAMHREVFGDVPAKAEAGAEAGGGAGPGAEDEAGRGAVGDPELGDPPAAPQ
# assay comment: Inhibition of recombinant human 17β-HSD1
# Assay type: biochemical
# experimental parameters: inhibitor at 1 μM; 30 nM estrone, 1 mM NADPH, 30 min at RT; read-out: 17β-HDS1 Inhibition % at 1 μM
measured quantity: inhibition at 1 µM (%)
Report as a plain number; the unit % is understood.

# molecule, inhibition at 1 µM [%]
measured = [
    ("Cc1cnc(NC(=O)CC[C@@H]2CC(=O)[C@@]3(C)CCC4c5ccc(O)c(Br)c5CCC4C23)s1 (stereo partly shown)", 92),
]

For Cc1cnc(NC(=O)CC[C@@H]2CC(=O)[C@@]3(C)CCC4c5cc([N+](=O)[O-])c(O)cc5CCC4C23)s1 (stereo partly shown) , write its inhibition at 1 µM.
91

For COc1ccc2c(c1)CCC1C2CC[C@]2(C)C(=O)C(O)[C@@H](CCC(=O)Nc3ncc(C)s3)C12 (stereo partly shown) , write its inhibition at 1 µM.
54

For Cc1cnc(NC(=O)CC[C@@H]2CC(=O)[C@@]3(C)CCC4c5cc(F)c(O)cc5CCC4C23)s1 (stereo partly shown) , write its inhibition at 1 µM.
98

---

# target: recombinant human 17β-HSD1 (Homo sapiens)
# Construct: made in house; host or cells: Sd9 (Sf9) insect cells, baculovirus (Bac to Bac Expression System)
# assay comment: Inhibition of recombinant human 17β-HSD1
# Format: biochemical
# experimental parameters: inhibitor at 1 μM; 30 nM estrone, 1 mM NADPH, 30 min at RT; read-out: 17β-HDS1 Inhibition % at 1 μM
Where a name gives a salt, the structure may show the parent alone.
Outcome label depends on inhibition at 1 µM relative to 90%: at/above gives Criterion met, below gives Criterion not met.

Consider the worked cases shown below.
# molecule, group label
rows = [
    ("Cc1cnc(NC(=O)CC[C@@H]2CC(=O)[C@@]3(C)CCC4c5cc([N+](=O)[O-])ccc5CCC4C23)s1 (some centres unmarked) [Compound 84]", "Criterion met"),
    ("Cc1cnc(NC(=O)CC[C@@H]2CC(=O)[C@@]3(C)CCC4c5ccc(OC(=O)CN(C)C)cc5CCC4C23)s1 (some centres unmarked) [Compound 26]", "Criterion met"),
    ("Cc1cnc(NC(=O)CC[C@@H]2CC(=O)[C@@]3(C)CCC4c5ccc(OC(=O)CN)cc5CCC4C23)s1 (some centres unmarked) [Compound 16]", "Criterion met"),
]

Hello, I need to know if Cc1nc2c3c(ccc2o1)C1CC[C@]2(C)C(=O)C[C@@H](CCC(=O)Nc4ncc(C)s4)C2C1CC3 (some centres unmarked) [Compound 49] has measured inhibition at 1 µM not below 90%. Thanks!
Criterion not met

Hello, I need to know if Cc1cnc(NC(=O)CC[C@@H]2CC(=O)[C@@]3(C)CCC4c5cccc(O)c5CCC4C23)s1 (some centres unmarked) [Compound 90] has measured inhibition at 1 µM not below 90%. Thanks!
Criterion met

Hello, I need to know if COc1cc2c(cc1C(C)=O)C1CC[C@]3(C)C(=O)C[C@@H](CCC(=O)Nc4ncc(C)s4)C3C1CC2 (some centres unmarked) [Compound 33] has measured inhibition at 1 µM not below 90%. Thanks!
Criterion not met

Hello, I need to know if Cc1cnc(NC(=O)CC[C@@H]2CC(=O)[C@@]3(C)CCC4c5ccc(OP(=O)(O)O)cc5CCC4C23)s1 (some centres unmarked) [Compound 7] has measured inhibition at 1 µM not below 90%. Thanks!
Criterion not met

Hello, I need to know if Cc1cnc(NC(=O)CC[C@@H]2CC(=O)[C@@]3(C)CCC4c5ccc(O)c(C#N)c5CCC4C23)s1 (some centres unmarked) [Compound 92] has measured inhibition at 1 µM not below 90%. Thanks!
Criterion met

Hello, I need to know if Cc1cnc(NC(=O)CC[C@@H]2CC(=O)[C@@]3(C)CCC4c5ccc(OC(=O)CCC(=O)O)cc5CCC4C23)s1 (some centres unmarked) [Compound 10, sodium salt] has measured inhibition at 1 µM not below 90%. Thanks!
Criterion met
